Hello, the source for this data is patent US20220249633A1, in case you need it.

Biological target: HLA-A*24 (human)
Assay: UV-exchange ELISA, exchange yield grade
recorded_endpoint: peptide exchange yield

>>> df
                               binder       recorded_endpoint   observed
 0    KYLEDMKTYF [… (SEQ ID NO: 133)]  peptide exchange yield  50 to 75%
 1     RYLINSYDF [… (SEQ ID NO: 140)]  peptide exchange yield      > 75%
 2     VYGVPTPHF [… (SEQ ID NO: 154)]  peptide exchange yield      > 75%
 3   VYVIEPHSMEF [… (SEQ ID NO: 372)]  peptide exchange yield  50 to 75%
 4     MYLKLVQLF [… (SEQ ID NO: 226)]  peptide exchange yield  20 to 49%
 5     QYSIISNVF [… (SEQ ID NO: 349)]  peptide exchange yield  50 to 75%
 6     EYLSTCSKL [… (SEQ ID NO: 204)]  peptide exchange yield  50 to 75%
 7     IYEETRGVL [… (SEQ ID NO: 159)]  peptide exchange yield  50 to 75%
 8     VYAIFRILL [… (SEQ ID NO: 239)]  peptide exchange yield  50 to 75%
 9     HYVPATKVF [… (SEQ ID NO: 164)]  peptide exchange yield  50 to 75%
10     IYGFFNENF [… (SEQ ID NO: 253)]  peptide exchange yield  50 to 75%
11  IFIDNSTQPLHF [… (SEQ ID NO: 257)]  peptide exchange yield  50 to 75%
12    VYFEGSDFKF [… (SEQ ID NO: 316)]  peptide exchange yield  50 to 75%
13    IYAGVGEFSF [… (SEQ ID NO: 210)]  peptide exchange yield      > 75%
14   NYIPVKNGKQF [… (SEQ ID NO: 103)]  peptide exchange yield  50 to 75%
15     RYPALFPVL [… (SEQ ID NO: 132)]  peptide exchange yield      > 75%
